# tested-on: SCRIB_1, Q14160
# Sequence (Q14160 718-814): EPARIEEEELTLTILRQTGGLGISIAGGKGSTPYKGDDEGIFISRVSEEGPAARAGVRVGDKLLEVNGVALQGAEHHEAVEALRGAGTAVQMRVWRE
# assay-method-text: holdup assay
# Design: key: below the threshold = too weak to quantify, mostly under pKd 3.1 to 4
# recorded-conditions: plain residues with an end cap or a label only (N-terminal biotin on a linker: ado-ado)
measure-name: pKd
Answer using only a numeral; do not append any unit.

Prompt: pKd lookup needed for QGLAERISVL [PRKD2, Q9BZL6] , thanks.
Response: 3.77

Prompt: Same lookup for SARSRLSSNL [HCN2, Q9UL51] , please.
Response: 4.36

Prompt: And what about the binder TASPAKETSF [SLC2A7, Q6PXP3] ?
Response: 4.56

Prompt: Would you mind doing TACCHSETVV [TGFA, P01135] as well?
Response: 4.3

Prompt: Same question for LGRSTPQSEV [DGKH, Q86XP1] please.
Response: 3.77

Prompt: Also need PRAEAEDSFL [PDGFRB, P09619] , thanks.
Response: 3.76
